# target_or_system: Prostaglandin G/H synthase 1 (Ovis aries, UniProt P05979)
# Sequence (P05979 whole entry): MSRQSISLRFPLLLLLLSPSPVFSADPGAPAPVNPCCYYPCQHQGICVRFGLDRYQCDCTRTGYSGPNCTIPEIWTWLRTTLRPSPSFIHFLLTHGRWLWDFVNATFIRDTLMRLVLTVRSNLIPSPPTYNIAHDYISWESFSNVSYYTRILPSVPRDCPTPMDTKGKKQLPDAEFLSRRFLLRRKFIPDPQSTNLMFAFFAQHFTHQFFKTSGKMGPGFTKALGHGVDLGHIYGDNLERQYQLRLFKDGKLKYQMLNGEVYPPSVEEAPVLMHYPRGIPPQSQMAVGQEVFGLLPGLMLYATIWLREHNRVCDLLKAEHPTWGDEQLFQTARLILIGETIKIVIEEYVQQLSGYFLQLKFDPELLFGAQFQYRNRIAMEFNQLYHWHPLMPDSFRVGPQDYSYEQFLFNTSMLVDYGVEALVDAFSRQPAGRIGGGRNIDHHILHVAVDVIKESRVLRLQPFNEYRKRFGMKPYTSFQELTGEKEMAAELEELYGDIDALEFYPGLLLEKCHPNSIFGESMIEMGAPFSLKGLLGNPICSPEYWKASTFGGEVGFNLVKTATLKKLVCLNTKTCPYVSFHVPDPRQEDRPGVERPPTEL
# assay_method_text: Inhibition of ovine COX1 assessed as reduction in PGF2alpha production using arachidonic acid as substrate by colorimetric method
parameter_measured: IC50 (µM)

Solved entries:
COc1ccc(-c2cc(CSc3nc4ccccc4c(=O)n3-c3ccc(Cl)cc3)on2)cc1OC : 10.2
COc1ccc(-c2cc(CSc3nc4ccccc4c(=O)n3-c3ccc(Br)cc3)on2)cc1OC : 4.57
COc1ccc(-c2cc(CSc3nc4ccccc4c(=O)n3-c3ccccc3)on2)cc1 : 4.67
COc1ccc(-n2c(SCc3cn(-c4ccc(Cl)cc4)nn3)nc3ccccc3c2=O)cc1 : 4.22
O=c1c2ccccc2nc(SCc2cn(-c3ccccc3)nn2)n1-c1ccccc1 : 7.33
COc1ccc(-n2c(SCc3cn(-c4ccc(Br)cc4)nn3)nc3ccccc3c2=O)cc1 : 7.63

A = COc1ccc(-c2cc(CSc3nc4ccccc4c(=O)n3-c3ccc(OC)cc3)on2)cc1
B = O=c1c2ccccc2nc(SCc2cn(-c3ccc(Cl)cc3)nn2)n1-c1ccccc1
Exercise: # returns the entry with the larger IC50; inputs A and B Use the label to indicate which entry you chose.
Key: A

a = O=c1c2ccccc2nc(SCc2cc(-c3ccc(Cl)cc3)no2)n1-c1ccccc1
b = O=c1c2ccccc2nc(SCc2cn(-c3ccc(Br)cc3)nn2)n1-c1ccc(Br)cc1
Exercise: # returns the entry with the larger IC50; inputs a and b Use the label to indicate which entry you chose.
Key: a
